FYI, the data here is from patent US20140107143A1.

Recorded Ki, one value per entry.
Target: human κ opioid receptor (Homo sapiens, UniProt P41145)
Sequence (P41145 whole entry): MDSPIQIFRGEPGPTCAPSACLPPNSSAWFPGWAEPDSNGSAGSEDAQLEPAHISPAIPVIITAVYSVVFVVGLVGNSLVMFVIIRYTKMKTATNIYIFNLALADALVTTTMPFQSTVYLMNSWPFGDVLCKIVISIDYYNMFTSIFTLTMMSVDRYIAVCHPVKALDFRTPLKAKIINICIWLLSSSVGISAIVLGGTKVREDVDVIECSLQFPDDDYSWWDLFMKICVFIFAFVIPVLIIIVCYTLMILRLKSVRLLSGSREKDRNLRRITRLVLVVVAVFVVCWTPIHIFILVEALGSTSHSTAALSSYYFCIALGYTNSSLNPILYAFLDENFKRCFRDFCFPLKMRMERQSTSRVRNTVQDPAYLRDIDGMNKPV
Assay: Opioid receptor binding assay, [3H]U69,593 (κ)
Conditions: read-out: [3H]U69,593 (K) Ki; CHO membranes, human receptor; mean ± SEM

- compound: "C[N+]1(CC2CC2)CC[C@]23c4c5ccc(O)c4O[C@H]2C(=O)CC[C@@]3(O)[C@H]1C5 (stereo partly drawn) [Compound 2, Naltrexone Methiodide, reference compound]"
  Ki [nM]: 6.3
- compound: "C[N+]1(CC2CC2)CC[C@]23CC(=O)CC[C@@]2(O)[C@H]1Cc1ccc(C(N)=O)c(O)c13 (stereo partly drawn)"
  Ki [nM]: 7.7
- compound: "C[N+]1(CC2CC2)CC[C@]23c4c5ccc(C(N)=O)c4O[C@H]2C(=O)CC[C@@]3(O)[C@H]1C5 (stereo partly drawn) [Compound 4, 3-Carboxamido-naltrexone methiodide]"
  Ki [nM]: 210

----------
Molecular target: human κ opioid receptor (Homo sapiens, UniProt P41145)
Test: Opioid receptor binding assay, [3H]U69,593 (κ)
Conditions: ratio of Ki values
K: μ: recorded values
measurement.name: K: μ

- compound: "C[N+]1(CC2CC2)CC[C@]23c4c5ccc(O)c4O[C@H]2C(=O)CC[C@@]3(O)[C@H]1C5 (some centres unmarked) [Compound 2, Naltrexone Methiodide, reference compound]"
  assay.result: 0.32
- compound: "CC1C2Cc3ccc(O)cc3C1(C)CC[N+]2(C)CC1CC1 (centres unmarked) [Compound 8, Cyclazocine methiodide]"
  assay.result: 0.2
- compound: "CC1C2Cc3ccc(C(N)=O)cc3C1(C)CC[N+]2(C)CC1CC1 (centres unmarked) [Compound 10, 8-Carboxamido-cyclazocine methiodide]"
  assay.result: 0.082
- compound: "C[N+]1(CC2CC2)CC[C@]23CC(=O)CC[C@@]2(O)[C@H]1Cc1ccc(C(N)=O)c(O)c13 (some centres unmarked) [Compound 6]"
  assay.result: 0.17
- compound: "C[N+]1(CC2CC2)CC[C@]23c4c5ccc(C(N)=O)c4O[C@H]2C(=O)CC[C@@]3(O)[C@H]1C5 (some centres unmarked) [Compound 4, 3-Carboxamido-naltrexone methiodide]"
  assay.result: 0.18

----------
Target: human κ opioid receptor (Homo sapiens, UniProt P41145)
Experiment: Opioid receptor binding assay, [3H]U69,593 (κ)
Conditions: ratio of Ki values
Reported K: δ is given for each of the following molecules.
measurement.name: K: δ

- molecule: "CC1C2Cc3ccc(O)cc3C1(C)CC[N+]2(C)CC1CC1 (stereo not shown) [Compound 8, Cyclazocine methiodide]"
  assay.result: 95
- molecule: "C[N+]1(CC2CC2)CC[C@]23c4c5ccc(O)c4O[C@H]2C(=O)CC[C@@]3(O)[C@H]1C5 (stereo partly shown) [Compound 2, Naltrexone Methiodide, reference compound]"
  assay.result: 143
- molecule: "C[N+]1(CC2CC2)CC[C@]23c4c5ccc(C(N)=O)c4O[C@H]2C(=O)CC[C@@]3(O)[C@H]1C5 (stereo partly shown) [Compound 4, 3-Carboxamido-naltrexone methiodide]"
  assay.result: 143
- molecule: "CC1C2Cc3ccc(C(N)=O)cc3C1(C)CC[N+]2(C)CC1CC1 (stereo not shown) [Compound 10, 8-Carboxamido-cyclazocine methiodide]"
  assay.result: 21

----------
Biological target: UniProtKB P41145
pIC50: −log10 of the molar value.
measurement.name: pIC50

- compound: "C[N+]1(CC2CC2)CC[C@]23CC(=O)CC[C@@]2(O)[C@H]1Cc1ccc(C(N)=O)c(O)c13 (stereo partly shown)"
  assay.result: 5.11
